# Assayed target: human A2B receptor (Homo sapiens, UniProt P29275)
# Construct: expressed in transfected cells; host or cells: HEK293
# Sequence (P29275 whole entry): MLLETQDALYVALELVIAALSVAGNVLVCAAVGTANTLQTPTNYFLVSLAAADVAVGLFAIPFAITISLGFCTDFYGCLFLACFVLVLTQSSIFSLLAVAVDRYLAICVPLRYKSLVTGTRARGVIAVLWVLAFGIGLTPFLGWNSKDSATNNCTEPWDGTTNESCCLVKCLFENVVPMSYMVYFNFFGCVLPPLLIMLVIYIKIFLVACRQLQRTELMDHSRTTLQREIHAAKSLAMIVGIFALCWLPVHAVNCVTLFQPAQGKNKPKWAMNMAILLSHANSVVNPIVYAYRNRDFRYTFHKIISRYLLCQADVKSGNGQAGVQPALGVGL
# Test description: Functional A2B receptor activity, recombinant HEK293 cells, cAMP (HTRF), agonist NECA
# Format: cell-based
# Cond: read-out: Functional A2B receptor activity, HEK293, cAMP, IC50
pIC50: −log10 of the molar value.
In this section we review reported pIC50 values for a set of compounds.

# count of solved cases: 5
{"Compound": "COc1ncc(-c2cnn(Cc3cccnc3)c2)c2sc(NC(=O)N3CCC4(CCOCC4)C3)nc12 [Compound 68]", "Result": "> 8.00"}
{"Compound": "COc1ncc(C2=CCOCC2)c2sc(NC(=O)N3CC[C@@]4(CCCNC4)C3)nc12 [Compound 121]", "Result": "> 7.00"}
{"Compound": "COc1ncc(C2=CCOCC2)c2sc(NC(=O)c3cnn(Cc4ncc[nH]4)c3)nc12 [Compound 158]", "Result": "> 8.00"}
{"Compound": "COc1ncc(-c2ccc(C)o2)c2sc(NC(=O)N3CCC4(CCOCC4)C3)nc12 [Compound 114]", "Result": "> 7.00"}
{"Compound": "COc1ncc(C2=CCOCC2)c2sc(NC(=O)N3CCC(N4C(=O)CCC4=O)CC3)nc12 [Compound 100]", "Result": "> 8.00"}

Field pIC50 (entry COc1ncc(-c2cnn(C[C@@H]3CCCCO3)c2)c2sc(NC(=O)N3CCC4(CCOCC4)C3)nc12 [Compound 118] ) reads > 7.00
